// data source = patent US11208423B2

- EXPERIMENTAL TARGET: Vps34 enzyme (Homo sapiens (Human), UniProt Q8NEB9)
- Sequence (Q8NEB9 whole entry): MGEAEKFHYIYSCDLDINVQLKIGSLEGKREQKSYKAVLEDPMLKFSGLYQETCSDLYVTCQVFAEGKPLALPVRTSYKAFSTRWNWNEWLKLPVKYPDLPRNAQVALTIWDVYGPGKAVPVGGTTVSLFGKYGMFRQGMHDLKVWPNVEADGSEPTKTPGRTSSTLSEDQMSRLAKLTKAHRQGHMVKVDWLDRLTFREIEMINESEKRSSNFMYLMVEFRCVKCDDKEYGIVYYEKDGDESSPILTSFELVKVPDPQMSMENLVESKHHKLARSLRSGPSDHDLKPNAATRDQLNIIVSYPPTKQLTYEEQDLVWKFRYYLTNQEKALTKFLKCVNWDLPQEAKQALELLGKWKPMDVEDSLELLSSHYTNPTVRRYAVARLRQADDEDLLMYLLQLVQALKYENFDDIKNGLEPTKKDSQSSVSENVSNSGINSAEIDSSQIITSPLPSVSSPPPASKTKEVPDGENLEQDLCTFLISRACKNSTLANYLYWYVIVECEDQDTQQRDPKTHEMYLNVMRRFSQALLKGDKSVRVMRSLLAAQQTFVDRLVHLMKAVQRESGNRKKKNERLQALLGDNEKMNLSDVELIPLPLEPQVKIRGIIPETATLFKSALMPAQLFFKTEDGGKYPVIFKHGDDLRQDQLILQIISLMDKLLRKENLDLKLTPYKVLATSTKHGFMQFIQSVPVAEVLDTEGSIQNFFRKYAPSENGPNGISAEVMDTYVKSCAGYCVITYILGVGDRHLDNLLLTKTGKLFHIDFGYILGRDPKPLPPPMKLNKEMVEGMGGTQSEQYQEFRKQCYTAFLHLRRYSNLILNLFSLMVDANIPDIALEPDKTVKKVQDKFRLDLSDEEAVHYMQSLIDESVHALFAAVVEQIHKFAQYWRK
- ASSAY PROTOCOL: Vps34 Biochemical Assay (Adapta kinase assay)
- SETTINGS: 20 μM ATP / 200 μM PI:PS substrate mix, 1 h at room temperature, TR-FRET, read-out: Median IC50 nM Adapta
Below, each entry is listed with its recorded IC50.

Answered examples (2):
> print(dat)
                                   compound  measured.metric  reported.value
1  O=c1cc(-c2ccnc(Nc3ncco3)c2)cc(N2CCOCC2C(F)(F)F)[nH]1 (centres unmarked) [Example 40]             IC50          < 5 nM
2  Cn1cnc(Nc2cc(-c3cc(-c4ccccc4C(F)(F)F)[nH]c(=O)c3)ccn2)c1 [Example 62]             IC50           12 nM

### Prompt Return the recorded IC50 value; entry: O=c1cc(-c2ccnc(Nc3ccccc3)n2)cc(N2CCOCC2)[nH]1 [Example 10]
### Response < 5 nM

### Prompt Return the recorded IC50 value; entry: Cc1nccc(Nc2cc(-c3cc(N4CCN(S(=O)(=O)Cc5ccc(F)cc5)CC4C(F)(F)F)[nH]c(=O)c3)ccn2)n1 (centres unmarked) [Example 33]
### Response < 5 nM

### Prompt Return the recorded IC50 value; entry: O=c1cc(-c2ccnc(Nc3ccccc3)n2)cc(N2CCOCC2C(F)(F)F)[nH]1 (centres unmarked) [Example 27]
### Response < 5 nM

### Prompt Return the recorded IC50 value; entry: O=c1cc(-c2ccnc(Nc3ccccc3)n2)cc(-c2cccnc2)[nH]1 [Example 6]
### Response < 5 nM

### Prompt Return the recorded IC50 value; entry: CCS(=O)(=O)N1CCN(c2cc(-c3ccnc(Nc4ccnc(C)n4)c3)cc(=O)[nH]2)C(C(F)(F)F)C1 (centres unmarked) [Example 39]
### Response < 5 nM

### Prompt Return the recorded IC50 value; entry: Cc1nccc(Nc2cc(-c3cc(-c4cnccc4C)[nH]c(=O)c3)ccn2)n1 [Example 55]
### Response < 5 nM

### Prompt Return the recorded IC50 value; entry: Cc1nccc(Nc2cc(-c3cc(N4CCOCC4C(F)(F)F)[nH]c(=O)c3)ccn2)n1 (centres unmarked) [Example 26]
### Response < 5 nM

### Prompt Return the recorded IC50 value; entry: Cc1nccc(Nc2cc(-c3cc(-c4cccnc4C(F)(F)F)[nH]c(=O)c3)ccn2)n1 [Example 57]
### Response < 5 nM

### Prompt Return the recorded IC50 value; entry: Cc1nccc(Nc2cc(-c3cc(-c4ccccc4Cl)[nH]c(=O)c3)ccn2)n1 [Example 66]
### Response < 5 nM

### Prompt Return the recorded IC50 value; entry: Cc1nccc(Nc2cc(-c3cc(N4CCCCC4C(F)(F)F)[nH]c(=O)c3)ccn2)n1 (centres unmarked) [Example 18]
### Response < 5 nM

### Prompt Return the recorded IC50 value; entry: O=c1cc(-c2ccnc(Nc3ccccc3)n2)cc(-c2ccccc2Cl)[nH]1 [Example 4]
### Response < 5 nM

---

- EXPERIMENTAL TARGET: UniProt Q8NEB9
- ASSAY PROTOCOL: Vps34 Biochemical Assay (Adapta kinase assay)
- SETTINGS: 20 μM ATP / 200 μM PI:PS substrate mix, 1 h at room temperature, TR-FRET, read-out: Median IC50 nM Adapta
MEASURED METRIC: IC50 (nM)

> print(dat)
                                   compound  measured.metric  reported.value
1  Cn1nccc1Nc1cc(-c2cc(-c3ccccc3C(F)(F)F)[nH]c(=O)c2)ccn1             IC50              55

[I] Cc1nc(Nc2cc(-c3cc(-c4ccccc4C(F)(F)F)[nH]c(=O)c3)ccn2)cs1
[II] Cc1nc(Nc2cc(-c3cc(N4CCOCC4C(F)(F)F)[nH]c(=O)c3)ccn2)cs1 (stereo not shown)
[III] O=c1cc(-c2ccnc(Nc3ccccc3)n2)cc(-c2ccncc2)[nH]1
### Prompt # rank by IC50, ascending (min first) // respond by listing labels in the order requested
### Response III, II, I

---

Below, each entry is listed with its recorded IC50.
- EXPERIMENTAL TARGET: Vps34 enzyme (Homo sapiens (Human), UniProt Q8NEB9)
- ASSAY PROTOCOL: Vps34 Biochemical Assay (Adapta kinase assay)
- SETTINGS: 20 μM ATP / 200 μM PI:PS substrate mix, 1 h at room temperature, TR-FRET, read-out: Median IC50 nM Adapta

> print(dat)
                                   compound  measured.metric  reported.value
1  O=c1cc(-c2ccnc(Nc3ccccc3)n2)cc(N2CCCCC2C(F)(F)F)[nH]1 (stereo not drawn)             IC50          < 5 nM
2  Cc1nccc(Nc2cc(-c3cc(-c4ccccc4C(F)(F)F)[nH]c(=O)c3)ccn2)n1             IC50          < 5 nM

Now, please, on to the next compound.
### Prompt Return the recorded IC50 value; entry: "CCn1cc(-c2cc(-c3ccnc(Nc4ccnc(C)n4)c3)cc(=O)[nH]2)c(C(F)(F)F)n1"
### Response < 5 nM
